System: Ba/F3 cells expressing EGFR mutations
assay.notes: Cell proliferation assay, Ba/F3 cells expressing EGFR mutations (CellTiter-Glo, 72 hours)
Format: cell-based
run.conditions: Mus musculus, BaF3, 72 h, EGFR DEL19-T790M, CellTiter-Glo, read-out: DEL19-T790M GI50
measured.endpoint: GI50 (nM)
Just the number in nM, nothing appended.

Solved entries:
- compound: "Cn1ncc2c1OCCN1CCC(C)(C1)n1c(nc3ccc(N4CCOCC4)cc31)NC(=O)c1cc-2c(=O)n(C)c1 (centres unmarked) [Example A11]"
  tested.system: "Ba/F3 cells expressing EGFR mutations"
  uom: "nM"
  value.measured: 1790
- compound: "C[C@@H]1CCCOc2c(cnn2C)-c2cc(cn(C)c2=O)C(=O)Nc2nc3ccc(N4CCOCC4)cc3n2C1 [Example A26]"
  tested.system: "Ba/F3 cells expressing EGFR mutations"
  uom: "nM"
  value.measured: 18
- compound: "C[C@@H]1CCCOc2c(cnn2C)-c2cc(cn(C)c2=O)C(=O)Nc2nc3ccc(N4CC5CN(C)CC5C4)cc3n2C1 (some centres unmarked) [Example A30]"
  tested.system: "Ba/F3 cells expressing EGFR mutations"
  uom: "nM"
  value.measured: 15
- compound: "C[C@@H]1CCCOc2c(cnn2C)-c2cc(cn(C)c2=O)C(=O)Nc2nc3ccc(N4CCC(N(C)C)C(F)C4)cc3n2C1 (some centres unmarked) [Example A38]"
  tested.system: "Ba/F3 cells expressing EGFR mutations"
  uom: "nM"
  value.measured: 7.3

Which measured GI50 value corresponds to C[C@@H]1CCCOc2c(cnn2C)-c2cc(cn(C)c2=O)C(=O)Nc2nc3ccc(N4CCC(N(C)C)C(F)(F)C4)cc3n2C1 (some centres unmarked) [Example A51] ?
65

And then Cn1ncc2c1OCCN1CCCC(C)(C1)n1c(nc3ccc(N4CCOCC4)cc31)NC(=O)c1cc-2c(=O)n(C)c1 (centres unmarked) [Example A10] , what is it?
323

And then Cn1ncc2c1OCCN(C1COC1)CCn1c(nc3ccccc31)NC(=O)c1cc-2c(=O)n(C)c1 [Example A5] , what is it?
747

And then Cn1ncc2c1OCCN1CC3CCC(CC3)(C1)n1c(nc3ccc(N4CCOCC4)cc31)NC(=O)c1cc-2c(=O)n(C)c1 [Example A74] , what is it?
37

Values compiled from patent US20260365670A1.
